conditions: in ethanol, 293.2 K
READOUT: solubility (mole fraction)
Please state the value as a number alone, without comment.

q: Which solubility (mole fraction) value belongs to CN1C(C(=O)Nc2ccccn2)=C(O)c2ccccc2S1(=O)=O ?
a: 0.000103

----------
conditions: in ethanol, 303.2 K
READOUT: solubility (mole fraction)
Please state the value as a number alone, without comment.

q: Which solubility (mole fraction) value belongs to CN1C(C(=O)Nc2ccccn2)=C(O)c2ccccc2S1(=O)=O ?
a: 0.000334

----------
conditions: in ethanol, 298.2 K
READOUT: solubility (mole fraction)

q: Which solubility (mole fraction) value belongs to CN1C(C(=O)Nc2ccccn2)=C(O)c2ccccc2S1(=O)=O ?
a: 0.000177
